- MEASURED_ON: His-GST-TVMV-hRIPK1(1-324) (Homo sapiens)
- Construct: The coding region of human RIPK1(1-324) flanked by NdeI site at 5′ end; made in house; host or cells: Spodoptera frugiperda Sf9 insect cells (baculovirus, Bac-to-Bac)
- ASSAY_DETAILS: biochemical
- Assay type: binding
- CONDITIONS: HTRF probe displacement, 1 h at rt; read-out: RIPK1 IC50
MEASUREMENT_KIND: pIC50
Expect pIC50 as a plain number equal to -log10 of the molar concentration.

In: Look up pIC50: Cc1ccc(-c2ccn3nc(N)nc3c2)c(F)c1C(=O)NCCC(O)c1c(F)cccc1F (single isomer, unassigned)
Out: 7.89

In: What value of pIC50 has been recorded for this entry: Cc1ccc(-c2ccn3nc(N)nc3c2)c(F)c1C(=O)NCC(F)(F)C(O)c1ccc(F)cn1 (stereo not shown) [Example 270]
Out: 7.96

In: // lookup pIC50 for `Cc1ccc(-c2ccn3nc(N)nc3c2F)c(F)c1C(=O)NCC[C@H](O)c1ccc(Cl)cc1`
Out: 8.08

In: Need pIC50, item Cc1ccc(-c2ccn3nc(N)nc3c2)c(F)c1C(=O)NCC(F)(F)[C@@H](O)c1ccc(F)cc1 (single isomer, unassigned)
Out: 8.35

In: Need pIC50 of Cc1ccc(-c2ccn3nc(N)nc3c2)c(F)c1C(=O)NCCC(O)c1cccc(Cl)c1 (stereo not shown) [Example 43] , thanks.
Out: 8.49

In: Need pIC50 of Cc1ccc(-c2ccn3nc(N)nc3c2)c(F)c1C(=O)NCC(F)(F)C(O)c1c(F)cc(F)cc1F (single isomer, unassigned) [Example 284] , thanks.
Out: 8.46

In: Would you kindly share the measured pIC50 for Cc1ccc(-c2ccn3nc(N)nc3c2)c(F)c1C(=O)NCC(F)(F)C(C)(O)c1ccc(C(F)(F)F)cc1 (stereo not shown) ?
Out: 7.82

----------
- MEASURED_ON: His-GST-TVMV-hRIPK1(1-324) (Homo sapiens, UniProt Q13546)
- Construct: The coding region of human RIPK1(1-324) flanked by NdeI site at 5′ end; made in house; host or cells: Spodoptera frugiperda Sf9 insect cells (baculovirus, Bac-to-Bac)
- Sequence (Q13546 1-324): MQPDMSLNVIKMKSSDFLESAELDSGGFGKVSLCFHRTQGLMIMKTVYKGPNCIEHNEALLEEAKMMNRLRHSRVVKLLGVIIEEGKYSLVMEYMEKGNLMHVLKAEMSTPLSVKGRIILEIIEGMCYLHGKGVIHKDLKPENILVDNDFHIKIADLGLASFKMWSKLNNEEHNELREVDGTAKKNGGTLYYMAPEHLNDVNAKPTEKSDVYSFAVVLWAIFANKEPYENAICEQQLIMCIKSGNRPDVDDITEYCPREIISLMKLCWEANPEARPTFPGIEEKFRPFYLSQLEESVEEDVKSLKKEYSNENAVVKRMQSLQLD
- ASSAY_DETAILS: biochemical
- Assay type: binding
- CONDITIONS: HTRF probe displacement, 1 h at rt; read-out: RIPK1 IC50
Please respond with YES when measured IC50 is strictly beneath 7 nM, and with NO in all other cases.

In: Determine if [2H]C([2H])([2H])c1ccc(C(O)C(F)(F)CNC(=O)c2c(C([2H])([2H])[2H])ccc(-c3ccn4nc(N)nc4c3)c2F)cc1 (single isomer, unassigned) [Example 201] shows IC50 strictly lower than 7 nM.
Out: YES

In: Find out if reported IC50 for Nc1nc2cc(-c3ccc(Cl)c(C(=O)NCC(F)(F)C(O)C4CCC(F)(F)CC4)c3F)ccn2n1 (centres unmarked) [Example 256] is less than 7 nM
Out: YES

In: Just wondering, is IC50 of Nc1nc2cc(-c3ccc(Cl)c(C(=O)NCC(F)(F)C(O)c4cccc(C(F)(F)F)n4)c3F)ccn2n1 (single isomer, unassigned) [Example 255] below 7 nM?
Out: NO

In: # strict comparison: is reported IC50 < 7 nM? input = Nc1nc2cc(-c3ccc(Cl)c(C(=O)NCC(F)(F)C(O)c4cc(Cl)ccc4F)c3F)ccn2n1 (centres unmarked) [Example 180]
Out: YES

In: Please determine if Nc1nc2cc(-c3ccc(Cl)c(C(=O)NCC(F)(F)C(O)c4cccc(F)c4)c3F)ccn2n1 (single isomer, unassigned) [Example 169] is below 7 nM in terms of IC50.
Out: YES

In: Quick check: IC50 of Nc1nc2cc(-c3ccc(Cl)c(C(=O)NCC(F)(F)C(O)c4cccc(Cl)c4F)c3F)ccn2n1 (single isomer, unassigned) [Example 171] under 7 nM?
Out: YES

In: Is the reported IC50 for `COc1ccc(-c2ccn3nc(N)nc3c2)c(F)c1C(=O)NCC[C@@H](O)c1ccc(Cl)cc1` strictly below 7 nM?
Out: NO

In: Find out if reported IC50 for Nc1nc2cc(-c3ccc(Cl)c(C(=O)NCCC(O)c4ccc(Cl)cn4)c3F)ccn2n1 (single isomer, unassigned) [Example 83] is less than 7 nM
Out: NO

In: Could you please tell me whether IC50 recorded for Cc1ccc(-c2ccn3nc(N)nc3c2C)c(F)c1C(=O)NCC[C@H](O)c1ccc(Cl)cc1 (single isomer, unassigned; enantiomer 1) [Example 137] is less than 7 nM?
Out: NO

In: Would you kindly verify if IC50 of [2H]C([2H])([2H])c1ccc(-c2ccn3nc(N)nc3c2)c(F)c1C(=O)NCC(F)(F)C(O)(c1ccc(F)cc1)C([2H])([2H])[2H] (single isomer, unassigned) [Example 244] is strictly less than 7 nM?
Out: YES

In: Report whether reported IC50 is lower than 7 nM (strictly) for [2H]C([2H])(CC([2H])(O)c1ccc(Cl)cc1)NC(=O)c1c(C)ccc(-c2ccn3nc(N)nc3c2)c1F (single isomer, unassigned) [Example 53]
Out: YES

In: IC50 under 7 nM? Item: Nc1nc2cc(-c3ccc(Cl)c(C(=O)NCC(F)(F)C(O)c4cccc(Cl)c4F)c3F)ccn2n1 (single isomer, unassigned) [Example 170]
Out: YES

In: Find out if reported IC50 for Cc1ccc(-c2ccn3nc(N)nc3c2)c(F)c1C(=O)NCCC(O)c1cccc(C#N)c1 (centres unmarked) is less than 7 nM
Out: YES

In: Is 7 nM strictly greater than the compound's reported IC50? compound: Nc1nc2cc(-c3ccc(Cl)c(C(=O)NC[C@@H](F)[C@H](O)c4ccc(F)cc4)c3F)ccn2n1 (single isomer, unassigned)
Out: YES

In: Could you please tell me whether IC50 recorded for Nc1nc2cc(-c3ccc(Cl)c(C(=O)NCCC(O)c4ccc(Cl)cn4)c3F)ccn2n1 (single isomer, unassigned) [Example 82] is less than 7 nM?
Out: NO

In: Does `Nc1nc2cc(-c3ccc(OC(F)F)c(C(=O)NCC(F)(F)[C@@H](O)c4ccc(F)cc4)c3F)ccn2n1` have IC50 strictly under 7 nM?
Out: NO

In: Quick check: IC50 of `COc1ccc(-c2ccn3nc(N)nc3c2)c(F)c1C(=O)NCC[C@H](O)c1ccc(Cl)cc1` under 7 nM?
Out: NO

In: Consider the compound Cc1ccc(-c2ccn3nc(N)nc3c2)c(F)c1C(=O)NCCC(O)c1ccc(C(F)(F)F)cc1 (single isomer, unassigned) [Example 56] . Is its IC50 strictly less than 7 nM?
Out: YES

Every entry's value here was drawn from patent US11767322B2.
